- Experimental setup: in THF, 311.15 K

Smiles notation	solubility (mole fraction)
Cc1nc(CCl)nc2ccccc12	0.452

###

- Experimental setup: in ethanol, 321.15 K

Smiles notation	solubility (mole fraction)
Cc1nc(CCl)nc2ccccc12	0.297

###

- Experimental setup: in n-butanol, 286.15 K
Measured metric: solubility (mole fraction)

Smiles notation	Test value
Cc1nc(CCl)nc2ccccc12	0.063

###

- Experimental setup: in acetonitrile, 316.15 K

Smiles notation	solubility (mole fraction)
Cc1nc(CCl)nc2ccccc12	0.34

###

- Experimental setup: in n-hexane, 291.15 K

Smiles notation	solubility (mole fraction)
Cc1nc(CCl)nc2ccccc12	0.0146

###

- Experimental setup: in acetonitrile, 326.15 K

Smiles notation	solubility (mole fraction)
Cc1nc(CCl)nc2ccccc12	0.488

###

- Experimental setup: in n-hexane, 301.15 K
Measured metric: solubility (mole fraction)

Smiles notation	Measured metric	Test value
Cc1nc(CCl)nc2ccccc12	solubility (mole fraction)	0.0232

###

- Experimental setup: in THF, 286.15 K

Smiles notation	solubility (mole fraction)
Cc1nc(CCl)nc2ccccc12	0.264

###

- Experimental setup: in acetonitrile, 286.15 K
Measured metric: solubility (mole fraction)

Smiles notation	Test value
Cc1nc(CCl)nc2ccccc12	0.0692

###

- Experimental setup: in acetone, 296.15 K

Smiles notation	solubility (mole fraction)
Cc1nc(CCl)nc2ccccc12	0.244

###

- Experimental setup: in ethanol, 316.15 K
Measured metric: solubility (mole fraction)

Smiles notation	Test value
Cc1nc(CCl)nc2ccccc12	0.257

###

- Experimental setup: in isopropanol, 291.15 K
Measured metric: solubility (mole fraction)

Smiles notation	Test value
Cc1nc(CCl)nc2ccccc12	0.0748

###

- Experimental setup: in cyclohexane, 316.15 K

Smiles notation	solubility (mole fraction)
Cc1nc(CCl)nc2ccccc12	0.135

###

- Experimental setup: in n-propanol, 321.15 K

Smiles notation	solubility (mole fraction)
Cc1nc(CCl)nc2ccccc12	0.253

###

- Experimental setup: in n-butanol, 296.15 K
Measured metric: solubility (mole fraction)

Smiles notation	Test value
Cc1nc(CCl)nc2ccccc12	0.101

###

- Experimental setup: in n-hexane, 326.15 K
Measured metric: solubility (mole fraction)

Smiles notation	Measured metric	Test value
Cc1nc(CCl)nc2ccccc12	solubility (mole fraction)	0.0751

###

- Experimental setup: in THF, 331.15 K

Smiles notation	solubility (mole fraction)
Cc1nc(CCl)nc2ccccc12	0.604

###

- Experimental setup: in cyclohexane, 306.15 K
Measured metric: solubility (mole fraction)

Smiles notation	Measured metric	Test value
Cc1nc(CCl)nc2ccccc12	solubility (mole fraction)	0.0832
